# Test system: vasopressin V1
# assay.summary: Vasopressin V1 Antagonist Activity in Conscious Rats (vasopressin vasopressor response)
# Type: in vivo, rat (spontaneously hypertensive rats)
# Parameters: unit not given here
# applied.conditions: 20 mg/kg i.v.; VAS 0.01 i.u./kg; 180 min
property.label: Average Change
Number only, no unit.

Cc1ccccc1NC(=O)c1ccc(C(=O)N2Cc3ccccc3Cc3ccccc32)cc1    4
Cc1ccccc1C(=O)Nc1ccc(C(=O)N2Cc3ccccc3Sc3ccccc32)cc1    24.5
O=C(Nc1ccc(C(=O)N2Cc3ccccc3Cc3ccccc32)cc1)c1ccc(Cl)cc1Cl    25.5
Cc1cccc(NC(=O)c2ccc(C(=O)N3Cc4ccccc4Cc4ccccc43)cc2)c1C    21

Moving on to another molecule below.
Which value of Average Change has been reported for CSc1ccccc1C(=O)Nc1ccc(C(=O)N2Cc3ccccc3Cc3ccccc32)cc1 in the records?
15.5

###

# assay.system: oxytocin receptors (rat uterus membranes) (Rattus norvegicus)
# Construct: The resulting pellet containing the oxytocin receptors is resuspended; from tissue; host or cells: uterus membranes of DES-treated female Sprague-Dawley rats
# assay.summary: Oxytocin Receptor Binding
# Parameters: species or system female Sprague-Dawley rats
# applied.conditions: dose 10 μM
property.label: inhibition at 10 µM (%)
The response must be a number in % with no trailing unit.

Cc1cc(C(=O)N2Cc3ccccc3Cc3ccccc32)cc(C)c1NC(=O)c1ccc(Cl)cc1Cl [Example 259]    7
Cc1ccccc1COC(=O)c1ccc(C(=O)N2Cc3ccccc3Cc3ccccc32)cc1 [Example 266]    15
O=C(Nc1ccc(C(=O)N2CCc3c[nH]nc3-c3ccccc32)cc1)c1ccc(Cl)cc1Cl [Example 583]    95

Moving on to another compound below.
Param readout = inhibition at 10 µM; param system = oxytocin receptors (rat uterus membranes) (Rattus norvegicus); param query = Cc1nc2c(s1)CCN(C(=O)c1ccc(NC(=O)c3ccc(Cl)cc3Cl)cc1)c1ccccc1-2 [Example 455] ; response: value
88

###

Osmolality overview
# System: vasopressin V2
# assay.summary: Vasopressin V2 Antagonist Activity in Conscious Hydrated Rats (diuretic effect)
# Format: in vivo, normal Sprague-Dawley rats
# applied.conditions: 30 mg/kg orally, AVP 0.4 μg/kg i.p.
The response must be a number in mOsm/kg with no trailing unit.

// known answers, use as guide
O=C(Nc1ccc(C(=O)N2Cc3ccccc3Cc3ccccc32)cc1)c1ccc(Cl)c(Cl)c1 [Example 250]    1378
O=C(Nc1ccc(C(=O)N2Cc3ccccc3Cc3ccccc32)cc1)c1ccccc1Cl [Example 14]    739
O=C(Nc1ccc(C(=O)N2Cc3ccccc3Cc3ccccc32)cc1)C1CC=CCC1 (stereo not drawn) [Example 255]    1456
O=C(Nc1ccc(C(=O)N2Cc3ccccc3Cc3cc(Cl)ccc32)cc1)c1ccc(Cl)cc1Cl [Example 137]    358
Cc1cccc(C(=O)Nc2ccc(C(=O)N3Cc4ccccc4Cc4cc(Cl)ccc43)cc2)c1C [Example 138]    380

Which value of Osmolality has been reported for Cc1ccccc1C(=O)N(C)c1ccc(C(=O)N2Cc3ccccc3Cc3ccccc32)cc1 [Example 167] in the records?
1544

Here is the next compound: O=C(Cc1ccccc1Cl)Nc1ccc(C(=O)N2Cc3ccccc3Cc3ccccc32)cc1 [Example 16]
1257

Here is the next compound: Cc1cccc(C(=O)Nc2ccc(C(=O)N3Cc4ccccc4Cc4ccccc43)cc2)c1C [Example 11]
1114

Here is the next compound: O=C(Nc1ccc(C(=O)N2Cc3ccccc3Sc3ccccc32)cc1)c1ccccc1Cl [Example 448]
1084

Here is the next compound: Cc1ccccc1C(=O)Nc1ccc(C(=O)N2Cc3ccccc3Cc3ccccc32)cc1 [Example 2]
401

Here is the next compound: Cc1ccccc1C(=O)Nc1ccc(C(=O)N2Cc3ccccc3Cc3cc(Cl)ccc32)cc1 [Example 136]
306

Here is the next compound: Cc1ccccc1C(=O)Nc1ccc(C(=O)N2Cc3ccccc3C(C)c3ccccc32)cc1 (stereo not drawn) [Example 22]
738

###

Inhibition overview
# System: vasopressin V1
# assay.summary: Vasopressin V1 Antagonist Activity in Conscious Rats (vasopressin vasopressor response)
# Assay type: in vivo, rat (spontaneously hypertensive rats)
# applied.conditions: 20 mg/kg i.v.; VAS 0.01 i.u./kg; 240 min
The response must be a number in % with no trailing unit.

Cc1ccccc1C(=O)Nc1ccc(C(=O)N2Cc3ccccc3Sc3ccccc32)cc1 [Example 62]    24
Cc1ccccc1NC(=O)c1ccc(C(=O)N2Cc3ccccc3Cc3ccccc32)cc1 [Example 123]    54
Cc1cccc(NC(=O)c2ccc(C(=O)N3Cc4ccccc4Cc4ccccc43)cc2)c1C [Example 124]    45
CSc1ccccc1C(=O)Nc1ccc(C(=O)N2Cc3ccccc3Cc3ccccc32)cc1 [Example 61]    58

Moving on to another molecule below.
Which value of Inhibition has been reported for O=C(Nc1ccc(C(=O)N2Cc3ccccc3Cc3ccccc32)cc1)c1ccc(Cl)cc1Cl [Example 10] in the records?
25

###

Osmolality overview
# Test system: vasopressin V2
# assay.summary: Vasopressin V2 Antagonist Activity in Conscious Hydrated Rats (diuretic effect)
# Assay type: in vivo, normal Sprague-Dawley rats
# applied.conditions: 10 mg/kg orally, AVP 0.4 μg/kg i.p.
The response must be a number in mOsm/kg with no trailing unit.

Which value of Osmolality has been reported for CSc1ccccc1C(=O)Nc1ccc(C(=O)N2Cc3ccccc3Cc3ccccc32)cc1 in the records?
975

Here is the next molecule: O=C(O)Cn1cc2c(n1)-c1ccccc1N(C(=O)c1ccc(NC(=O)c3ccc(Cl)cc3Cl)cc1)CC2
989

Here is the next molecule: O=C(Nc1ccc(C(=O)N2Cc3ccccc3Cc3ccccc32)cc1)c1ccc(Cl)cc1Cl
1023

###

# assay.system: vasopressin V1 receptor (rat liver plasma membranes) (Rattus norvegicus)
# Sequence (P30560 whole entry): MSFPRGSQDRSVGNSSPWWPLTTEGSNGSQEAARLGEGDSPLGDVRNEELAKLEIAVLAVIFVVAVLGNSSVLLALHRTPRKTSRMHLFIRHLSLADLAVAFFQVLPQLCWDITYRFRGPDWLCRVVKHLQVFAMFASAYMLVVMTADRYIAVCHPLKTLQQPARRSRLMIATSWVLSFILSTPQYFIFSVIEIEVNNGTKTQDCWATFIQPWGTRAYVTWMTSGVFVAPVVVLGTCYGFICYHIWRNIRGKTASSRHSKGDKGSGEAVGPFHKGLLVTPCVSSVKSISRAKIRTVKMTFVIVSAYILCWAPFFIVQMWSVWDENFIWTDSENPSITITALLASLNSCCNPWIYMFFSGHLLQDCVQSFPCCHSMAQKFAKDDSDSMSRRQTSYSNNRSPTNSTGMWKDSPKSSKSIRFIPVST
# assay.summary: Binding Assay to Rat Hepatic V1 Receptors
# applied.conditions: rat hepatic V1
property.label: IC50 (nM)
The response must be a number in nM with no trailing unit.

Cc1ccccc1C(=O)Nc1ccc(C(=O)N2Cc3ccccc3-c3ccccc32)cc1 [Example 5]    56

Which value of IC50 has been reported for Cc1ccccc1C(=O)Nc1ccc(C(=O)N2Cc3ccccc3C(C)c3ccccc32)cc1 (stereo not drawn) [Example 22] in the records?
320

Here is the next molecule: Cc1ccccc1C(=O)Nc1ccc(C(=O)N2Cc3ccccc3Cc3ccccc32)cc1 [Example 2]
150

###

inhibition at 10 µM overview
# assay.system: oxytocin receptors (rat uterus membranes) (Rattus norvegicus, UniProt P70536)
# Construct: The resulting pellet containing the oxytocin receptors is resuspended; from tissue; host or cells: uterus membranes of DES-treated female Sprague-Dawley rats
# Sequence (P70536 whole entry): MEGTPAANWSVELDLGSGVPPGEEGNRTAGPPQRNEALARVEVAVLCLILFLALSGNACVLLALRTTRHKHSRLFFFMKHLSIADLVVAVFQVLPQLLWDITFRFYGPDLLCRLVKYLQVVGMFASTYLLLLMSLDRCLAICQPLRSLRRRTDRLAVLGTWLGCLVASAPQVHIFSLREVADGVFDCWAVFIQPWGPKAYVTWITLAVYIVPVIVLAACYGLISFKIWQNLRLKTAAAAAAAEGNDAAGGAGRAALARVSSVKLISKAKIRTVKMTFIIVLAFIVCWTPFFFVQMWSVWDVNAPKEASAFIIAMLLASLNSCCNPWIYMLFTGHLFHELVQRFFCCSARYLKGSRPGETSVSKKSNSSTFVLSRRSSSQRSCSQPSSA
# assay.summary: Oxytocin Receptor Binding
# Parameters: species or system female Sprague-Dawley rats
# applied.conditions: dose 10 μM
The response must be a number in % with no trailing unit.

// known answers, use as guide
O=C(Nc1ccc(C(=O)N2Cc3ccccc3Cc3ccccc32)cc1)c1cc(Cl)cc(Cl)c1Cl [Example 249]    38
O=C(Nc1ccc(C(=O)N2Cc3ccccc3Sc3ccccc32)cc1)c1ccccc1Cl [Example 448]    39
Cc1ccccc1C(=O)N(CN(C)C)c1ccc(C(=O)N2Cc3ccccc3Cc3ccccc32)cc1 [Example 267]    89

Moving on to another molecule below.
Param readout = inhibition at 10 µM; param system = oxytocin receptors (rat uterus membranes) (Rattus norvegicus, UniProt P70536); param query = O=C(Nc1ccc(C(=O)N2Cc3ccccc3Cc3ccccc32)cc1)c1cccc(Cl)c1Cl [Example 253] ; response: value
77
